Recorded Ratio IC50, one value per entry.
- Protocol text: Selectivity index, IC50 for african green monkey Vero cells to IC50 for Plasmodium falciparum D6
- Format: functional
Result type: Ratio IC50

[[record]]
compound = "O=Cc1ccc(C2OOC(c3ccccc3)OO2)cc1 (stereo not given)"
result_type = "Ratio IC50"
value_reported = ">1.3"

[[record]]
compound = "Cc1ccc(C2OOC(c3ccc(/C=N/Cc4ccccc4)cc3)OO2)cc1 (stereo not given)"
result_type = "Ratio IC50"
value_reported = ">2.6"

[[record]]
compound = "CC(C)c1ccc(C2OOC(c3ccc(C=O)cc3)OO2)cc1 (stereo not given)"
result_type = "Ratio IC50"
value_reported = ">2.2"

[[record]]
compound = "Cc1ccc(C2OOC(c3ccc(CNc4ccccc4)cc3)OO2)cc1 (stereo not given)"
result_type = "Ratio IC50"
value_reported = ">7.1"

[[record]]
compound = "Cc1ccc(C2OOC(c3ccc(/C=N\\c4ccccc4S)cc3)OO2)cc1 (stereo not given)"
result_type = "Ratio IC50"
value_reported = ">1.8"

[[record]]
compound = "CCc1ccc(C2OOC(c3ccc(C(=O)NCCCNc4ccnc5cc(Cl)ccc45)cc3)OO2)cc1 (stereo not given)"
result_type = "Ratio IC50"
value_reported = ">8.2"

[[record]]
compound = "Cc1ccc(C2OOC(c3ccc(C(=O)NC4CCCCC4)cc3)OO2)cc1 (stereo not given)"
result_type = "Ratio IC50"
value_reported = ">2.8"

[[record]]
compound = "Cc1ccc(C2OOC(c3ccc(C(=O)N4CCN(c5ccccc5)CC4)cc3)OO2)cc1 (stereo not given)"
result_type = "Ratio IC50"
value_reported = ">2.6"

[[record]]
compound = "CCc1ccc(C2OOC(c3ccc(C(=O)NCCO)cc3)OO2)cc1 (stereo not given)"
result_type = "Ratio IC50"
value_reported = ">2"

[[record]]
compound = "Cc1ccc(C2OOC(c3ccc(CNCc4ccccc4)cc3)OO2)cc1 (stereo not given)"
result_type = "Ratio IC50"
value_reported = ">3.7"

